# minimum inhibitory concentration annotations
Tested on: Escherichia coli
Protocol summary: minimum inhibitory concentration (MIC)
Study conditions: isolate (source animal id): 170

Completed entries (count: 2):
[[record]]
compound = "CC[C@H]1OC(=O)C[C@@H](O)[C@H](C)[C@@H](O[C@@H]2O[C@H](C)[C@@H](O)[C@H](N(C)C)[C@H]2O)[C@@H](CCN2C[C@H](C)C[C@H](C)C2)C[C@@H](C)C(=O)/C=C/C(C)=C/[C@@H]1CO[C@@H]1O[C@H](C)[C@@H](O)[C@@H](OC)[C@H]1OC [Tilmicosin]"
measure = "minimum inhibitory concentration"
measured_value = "> 16 mg/L"

[[record]]
compound = "CCCNC[C@]1(O)[C@H](C)O[C@@H](O[C@H]2[C@H](C)[C@@H](O[C@@H]3O[C@H](C)C[C@H](N(C)C)[C@H]3O)[C@](C)(O)C[C@@H](C)CN[C@H](C)[C@@H](O)[C@](C)(O)[C@@H](CC)OC(=O)[C@@H]2C)C[C@@]1(C)OC [Tulathromycin]"
measure = "minimum inhibitory concentration"
measured_value = "≤ 8 mg/L"


Shifting focus to the compound that follows.
Query: Would you mind telling me what minimum inhibitory concentration value was observed for COc1cc(Cc2cnc(N)nc2N)cc(OC)c1OC.Cc1cc(NS(=O)(=O)c2ccc(N)cc2)no1 [trimethoprim-sulfamethoxazole] ?
Result: ≤ 2 mg/L

====

# minimum inhibitory concentration annotations
Test system: Escherichia coli
Protocol summary: minimum inhibitory concentration (MIC)
Study conditions: isolate (source animal id): 113

[[record]]
molecule = "CNC(C)C1CCC(N)C(OC2C(N)CC(N)C(OC3OCC(C)(O)C(NC)C3O)C2O)O1 (stereo not drawn) [Gentamicin]"
measured_value = "≤ 1 µg/mL"

[[record]]
molecule = "COc1cc(NS(=O)(=O)c2ccc(N)cc2)nc(OC)n1 [sulfadimethoxine]"
measured_value = "> 256 µg/mL"


Shifting focus to the molecule that follows.
Query: # query: minimum inhibitory concentration | item C=C[C@]1(C)C[C@@H](OC(=O)CSCCN(CC)CC)[C@]2(C)[C@H](C)CC[C@]3(CCC(=O)[C@H]32)[C@@H](C)[C@@H]1O [Tiamulin] | system: Escherichia coli
Result: > 32 µg/mL

====

Test system: Escherichia coli
Protocol summary: minimum inhibitory concentration (MIC)
Study conditions: isolate (source animal id): 16
# minimum inhibitory concentration annotations
Give just the numeric value; µg/mL need not be written.

Query: Would you mind telling me what minimum inhibitory concentration value was observed for "CCCN1C[C@H](C)[C@@H](O)[C@](C)(O)[C@@H](CC)OC(=O)[C@H](C)[C@@H](O[C@H]2C[C@@](C)(OC)[C@@H](O)[C@H](C)O2)[C@H](C)[C@@H](O[C@@H]2O[C@H](C)C[C@H](N(C)C)[C@H]2O)[C@](C)(O)C[C@H]1C" ?
Result: 8

Query: Would you mind telling me what minimum inhibitory concentration value was observed for "CC1(C)S[C@@H]2[C@H](NC(=O)[C@H](N)c3ccccc3)C(=O)N2[C@H]1C(=O)O" ?
Result: 4

====

# minimum inhibitory concentration annotations
System: Histophilus somni
Protocol summary: minimum inhibitory concentration (MIC)
Study conditions: isolate (source animal id): 241

[[record]]
smiles_string = "CCN1CCN(c2cc3c(cc2F)c(=O)c(C(=O)O)cn3C2CC2)CC1"
measure = "minimum inhibitory concentration"
measured_value = "≤ 0.12 µg/mL"


Query: Would you mind telling me what minimum inhibitory concentration value was observed for "COc1cc(Cc2cnc(N)nc2N)cc(OC)c1OC.Cc1cc(NS(=O)(=O)c2ccc(N)cc2)no1" ?
Result: ≤ 2 µg/mL

Query: Would you mind telling me what minimum inhibitory concentration value was observed for "CO/N=C(\C(=O)N[C@@H]1C(=O)N2C(C(=O)O)=C(CSC(=O)c3ccco3)CS[C@H]12)c1csc(N)n1" ?
Result: ≤ 0.25 µg/mL
